Molecular target: T1, human CD155 (poliovirus receptor, PVR) on cells (U87/U87MG, HAP1) (human, UniProt P15151 21-417)
T1 construct: whole, on cells
T1 sequence (looked up): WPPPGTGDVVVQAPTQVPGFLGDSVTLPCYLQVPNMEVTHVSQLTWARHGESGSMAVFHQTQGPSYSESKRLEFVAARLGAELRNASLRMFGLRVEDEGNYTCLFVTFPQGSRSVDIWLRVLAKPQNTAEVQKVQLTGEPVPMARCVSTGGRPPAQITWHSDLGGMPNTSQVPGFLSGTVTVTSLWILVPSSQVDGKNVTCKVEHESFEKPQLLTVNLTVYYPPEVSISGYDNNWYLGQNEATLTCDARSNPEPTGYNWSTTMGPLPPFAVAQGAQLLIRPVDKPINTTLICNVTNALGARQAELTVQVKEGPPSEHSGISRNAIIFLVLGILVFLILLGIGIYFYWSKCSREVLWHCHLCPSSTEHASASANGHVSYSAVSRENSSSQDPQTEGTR
Experiment: cell binding on HAP-1 cells
Experimental endpoint: EC50
Record the result as number plus unit.

[Q] EC50 lookup needed for VH4 N54S D56G / VK3 N92E (antibody, V domains shown, Humanized variant of Ab825; also called antibody (vii)) VH: EVQLVQSGSELKKPGASVKVSCKTSGYTFTEYTMHWVRQPHGKGLEWIGGIHPNSGGTSYNQRFKGRVTITVDKSTSTAYMELSSLRSEDTAVYYCARWTGDFDYWGQGTLVTVSS VL: DIQMTQSPSAMSASVGDRVTITCKASQNVGTNVAWYQQKPGQPPKALIYSASYRYSGVPDRFSGSGSGTDFTLTISSLQAEDLAEYFCQQYESYPYTFGQGTKLEIK , thanks.
[A] 0.0563 µg/mL
